testMethodNotes: yeast display, Sf9 membrane polyspecificity reagent, FACS + sequencing; frameworks hold sequencing errors
observedProperty: polyreactivity (PSR sort gate)

QVQLVESGGGLVQAGGSLRLSCAASGFTFYSNAMGWYRQAPGKERELVAAINWGGGSTYYADSVKGRFTISRDNAKNTVNLQMNSLKPEDTAVYYCAAEPIWEYWNGVSYAYDYWGQGTQVTVSS = low polyreactivity
QDQLVESDAGLVQAGGSLRLSCAASGRIFLGNAMGRSIQPPGNERELVAAITYSGRSTYYSDSVKGRLTISRDNAKNTLYLQMNSLKPEDTAVYYCAARQYWTTDLPFQRYYYWGPGTQVTVSS = low polyreactivity
QVQLVESGGGLVQAGGSLRLSCAASGRTFNRYAMGWYRQAPGKEREFVASITRSGGSTYYADSVKGRFTISRDNAKNTVYLQMNSLKPEDTAVYYCAAQLRYKYDYWGQGTQVTVSS = high polyreactivity
QVQLVESGGGLVQAGGSLRLSCSASGITSKNYAMGCYRQAPGKERELVAVISGRGGSTYYADSVKGRFTISRDNAKNTVYLQMNSLKPVDTAVYYCAAYGNQRRGAYPYKYDYWGQGTQVTVSS = high polyreactivity
QVQLVESGGGLVQAGGSLRLSCAASGRILYYYAMGWYRQAPGKERELVATITRTTGSTYYADSVKGRFTISRDNAKNTVYLQMNSLKPEDTAVYYCAARWGRWIRDNYWGQGTQVSVSS = high polyreactivity
QVQLVESGGGLVQAGGSLRLRCAASGRIFVENAMGWYRQAPGKERELVATISSGDSTNYADSVKGRFTISRDNAKNTVYLQMNSLKPEDTAVYYCDAADGIIESDYWGQGTQVTVSS = low polyreactivity
QVQLVESGGGFVQAGGSLRLSCAASGFIFYQYAMGWYRQAPGKERELVAAISWGGGSTYYADSVKGRFTISRDNAKNTVYLQMNSLKQEDTAVYYCNTDSAPYYWLSDNYDSCGQGTQVTVSS = low polyreactivity
QVQLVESGGGLVQAGGSLRLICAASGRISVFYTMGWYRQAPGKERELVAVIRTSGGRTNYADSVKGRFTISRDNAKNTVYLQMNSLKPEDTAVYYCAARVVRYGYKYYYWGQGTQVTVSS = low polyreactivity

Task: Recorded polyreactivity (PSR sort gate) of QVQLVESGGGLVQAGGSLRLSCAASGRTFRFYAMGWYRQAPGKERELVATIRSGASTYYADSVKGRFTISRDNAKNTVYLQMNSLKPEDTAVYYCAAGLYFPYVSVIVFRSYDYWGQGTQVTVSS , please.
Result: high polyreactivity

Task: Consider the sequence QVQLVESGGGLVQAGGSLRLSCAASGFIFRYNAMGWYRQAPGKEREFVAAISQGGASTYYADSVKGRFTISRVNAKNTVYLQINSLKPEDTAVYYCAREPSIFTPSYDYWGQGTQVTVSS and give its measured polyreactivity (PSR sort gate).
Result: low polyreactivity

Task: Using the record for QVQLVESGGGLVQAGGRLRLSCAASGSTLPANAMGWYRQAPGKERELVSAITITTDGSTYYADSVKGRFTISRDNAKNTVYLQMNSLKPEDTAVYYCAVDRYRYHNRKMGYWGQGTEVTVSS , report its polyreactivity (PSR sort gate).
Result: low polyreactivity

Task: Any idea what polyreactivity (PSR sort gate) was measured for QVQLVESGGGLVQAGGSLRLTCAASGRTFWRYAMGWYRQAPGKERELVAAITSGGGSTYYADSVKGRFTISRDNAKNTVYLQMTSLKPEDTAVYYCNRAGRGRSFKGDYWGQGTQVTVSS ?
Result: high polyreactivity

Task: What measured polyreactivity (PSR sort gate) goes with QVQLVESGGGLVQAGGRLRLSCAASGSTFGENVMGWYRQAPGKERELVAAISRGGSTYYADSVKGRFTISRDNAKNTVYLQMNSLKPEDTAVYYCAARTRSGPRYNYNYWGQGTQVTVSS ?
Result: high polyreactivity

Task: // polyreactivity (PSR sort gate) lookup, key: QVQLVESGGGLVQAGGSLRLSCAASGSIFVSNAMGWSRPAPGKDRELVAGINYSGGSTYYADSVKGRFTISRDNAKNTVYLQLTSLKPEDTAVYYCARRRPYQWPYNYWGQGTQVTVSS
Result: high polyreactivity

Task: Could you share which polyreactivity (PSR sort gate) value was measured for QVQLVESGGGLVQAGGSLRLSCAASGITFRRKAMGWYRQAPGKERELVAAISASGTRTYYADSVKGRLTISRDNAKNTVYLQMNSLKPEDTAVYYCATRVTSRSSGFDYWGQGTQVTVSW ?
Result: high polyreactivity

* * *

testMethodNotes: yeast display, Sf9 membrane polyspecificity reagent, FACS + sequencing; frameworks hold sequencing errors
observedProperty: polyreactivity (PSR sort gate)

QVQLVESVGGLVQAGGSLRLSCAAYGRTFAPNAMLWYRQAPGKESELVAAISWSGTSTYYADSVKGRFTISRDNSKNTVYLQMYSLKPEDTAFYDCAADMEGRVGSPWTYDYWGQGTQVTVSS = low polyreactivity
QDQLVESGGGLVQAGGSLRLSCAPSGSTFGDYDMGGYRPAPGKERELVAAISNGGSTYYAASVKGRFTISRDNAKNTVYLQRNSLKPEDTADFYCNADNVEIRSTYEYGRYLYGYWGQGTQVTVSS = low polyreactivity

* * *

testMethodNotes: yeast display, Sf9 membrane polyspecificity reagent, FACS + sequencing; frameworks hold sequencing errors
observedProperty: polyreactivity (PSR sort gate)

Worked set:
QVQLVESGGVLVQAGGSLRLSCAASGFTFSLYAMGWYRQAPGKERELVASISRSGGSTYYADSVKGRFTISRDNAKNTVYLQMNSLKPEDTAVYSCAARWRPYKYDSWGQGTQVTVSS = high polyreactivity
QVQLVESGGGLVQAGGSLRLSCAAMGWYRQAPGKERELVATITWSGGSTYYADSVKGRFTISRDNAKNTVYLQMNSLKPEDTAVYYCNARATLLSPANTIRGYDYWGQGTQVTVSS = low polyreactivity
QVQLVESGGGLVQAGGSLRLSCAASGSIFQAYAMGWYRQAPGKERELVASISQSGDSTYYADSVKGRFTISRDNAKNTVYLQMNSLKPEDTAVYYCAAVQYGHRRGRVSVRRRLDYWGQGTQVTVSS = low polyreactivity
QVQLVESGGGLVQAGGSLRLSCAASGSTFDRYALGWYRQAPGKERELVAAITRGGSTYYADSVKGRFTISRDNAKNTVYLQLNSLKPDDTAVYYCAAAHWWVRVRGARYSYWGHGTQVTVSS = high polyreactivity

Query sequence follows.
Task: Given QVQLVESGGGIVQAGGSLRLSCAASGRIFRIYAMGWYRQAPGKEWELVASISWGGASTYYADSVKGRFTISRDNAKNPVYLQMNSLKPEDTAVYDCAAVGYQGQYDYRSFGSWGQGTQVTVSS , state its recorded polyreactivity (PSR sort gate).
Result: high polyreactivity

* * *

testMethodNotes: yeast display, Sf9 membrane polyspecificity reagent, FACS + sequencing; frameworks hold sequencing errors
observedProperty: polyreactivity (PSR sort gate)

QVQLVESGGGLVQAGGSLRLSCAATGFTFEYYAMGWYRKAPGKERELVAAITSGGSTNYADSVKVRFTISRDNAKNTVSLQKNSLKPEDTAVYYCATSGNNYYYALYGYWGQGTQVTVSS = low polyreactivity
QVQLVESRGGLVQAGGSLRLSCAASGSIFYRYARGWYRQAPGKERELVAAITYSGGRTYYADSVKGRFTISRDNAKNTVYLQMNSLKPEDTAVYYCAAEKQSYGSPQGYDYWGQGTQVTVSS = low polyreactivity

* * *

testMethodNotes: yeast display, Sf9 membrane polyspecificity reagent, FACS + sequencing; frameworks hold sequencing errors
observedProperty: polyreactivity (PSR sort gate)

QVQLVESGGGLVQAGGSLRLSCAASGSTFILYAMGWYRHAPGKERELVAAISRSTGITYYADSVKGRFTISRDNAKNTVYLQMNSLKPEDTAGYYCAADAWGYNDYDASYSTGYEYWGQGTQVTVSS = high polyreactivity
QVQLVESGGGLVQAGGSLRLSGAASGRIFGSYARGWYRQAPGKEREFVAGIRSVGSTNYADSVKGRFTISRDNAKNTVYLQMNSLKPEDTAVSYCASRLWHVSYAGQGGDYWGKGTQVTVSS = low polyreactivity
QVQLVESGGGLVKAGGSLRLSCAASGFTFPQYAMGWYRQAPGKESELVAAISKRSGGTRYADSVKGRFTISRDNAKNTVYLQMNSLKPEDTAVYYCAAATPSGYYYWGQGTQVTVSS = high polyreactivity
QVQLVESGGGLVQAGGSLRLSCAASGFTFGKYDMGWYRQAPGKERELVATITSSGDSTYYADSVKGRFTISRDNAKNTVYLQMNSLKPEDTAVYYCATPYGRHGWFYLYDYWGQGTQVTVSS = low polyreactivity
QVQLVESGGGLVQAGGSLRLSCAASGRIFGIYTMGWYRQAPGKERELVAAISRSGGSTYYADSVKGRFTISRDNAKNTVYLQMNSLKPEDTAVYYCAAVPYRFPGYGFDSWGQGTQVTVSS = high polyreactivity

Task: Reported polyreactivity (PSR sort gate), sequence QVQLVESGGGLVQAGGSLRLSCAASGRNFPYYAMGWSRQAPGKERELVADISSSGGRTYYADSVKGRFTTSRDNAKNTVYLQMNSLKPEDTAVYYCNAESTYYPSGEDYWGQGTQVTVSS : ____
Result: low polyreactivity

Task: State the recorded polyreactivity (PSR sort gate) for this entry: QVQLVESGGGLVQAGGSLRLSFAASGSTFKFNAMGWYRQAPGKERELVATITSRGSRTYYADSVKGRFTISRDNAKNTVYLQMNSLKPEDTAVYYCAKVSKRVGFPTAMNYWGQGTQVTVSS
Result: high polyreactivity

Task: What value of polyreactivity (PSR sort gate) has been recorded for this entry: KVQLVESGGGLVQAGGSLRISCAASGSTLYRYAMGWYRQAPGKERELVAAISSSGGSTYYADSVKGRFTISRDNAKNTVYLQMNSLKPEDTAVYYCARVAPASGVRWYYYWGQGTQVTVSS
Result: high polyreactivity

Task: So what does the record say about polyreactivity (PSR sort gate) for QVQLVESGGGLVQAGGSLRLSCAASGRTFPYNFMGWYRQAPGKERELVAGITGSGDSTFYADSVKGRFTISRDNAKNTVYLQMNSLKPEDTAVYYCAARYRTLNDGYNRNYWGQGTQVTVSS ?
Result: low polyreactivity

Task: Requested read-out: polyreactivity (PSR sort gate). Entry: QVQLVESGGGLVQAGGSLRLSCAASGSTFKTYSMGWYRQAPGKERELVAAISGNGGSTYYADSVKGRFTISRDNAKNTVYLQMNILIPEDTAVYYCAAKRRRHFSRGYEYWGQGSQVTVSS
Result: high polyreactivity

Task: So what does the record say about polyreactivity (PSR sort gate) for QVQLVESGGGLVQAGGSLRLSCAASGRIFSGYAMGWYRQATGKERELVAAITSVGSTNYADSVKGRFTISRDNAKNTVYLQMNSLKPEDTAVYYCAARSQIYYRYRSYGYWGQGTQVTVSS ?
Result: high polyreactivity

Task: Endpoint output: polyreactivity (PSR sort gate) of QVQLVETGGGLVQAGGSLRLSCAASGSSFGSYAMGWYREAPGKERELVAAISSSGASTYYADSVKGRFTISRDNAKITVYLQMNSLKPEDTAVYYCNAARRYPTRGGYWGQGTQVTVSS . Value?
Result: high polyreactivity

Task: Consider the sequence QVQLVESGGLLVQAGGSLRLSCAASGFNFYNYAMGWYRQAPGKERELVAAISKRGGRTYYADSVKGRFTISRDNAKITVYLQMNRLKPVDTAVYYCNTDAVRPYHVAWYDYWGQGTQVTVSS and give its measured polyreactivity (PSR sort gate).
Result: high polyreactivity
